# Test system: MDA-MB-231 human breast cancer cells
# measurement notes: Cell proliferation assay (CellTiter-Glo, 72 hours treatment)
# Type: cell-based
# measurement parameters: Homo sapiens; MDA-MB-231 cells, 72 hours at 37° C., CellTiter-Glo; read-out: MDA-MB-231 cell proliferation assay (IC50)
pIC50: −log10 of the molar value. Where a name gives a salt, the structure may show the parent alone.
Please go through the items and note down their pIC50.

Give recorded pIC50. COCCNC[C@H]1[C@@H](O)[C@@]2(O)c3c(OC)cncc3O[C@@]2(c2ccc(C#N)cc2)[C@@H]1c1ccccc1 [263F, hydrochloride]
> 7.00

Give recorded pIC50. COc1nc(C#N)cc2c1[C@]1(O)[C@H](O)[C@H](CN)[C@@H](c3ccccc3)[C@]1(c1ccc(C#N)cc1)O2 (racemic) [293F]
> 7.00

Give recorded pIC50. CNC[C@H]1[C@@H](O)[C@@]2(O)c3c(OC)cncc3O[C@@]2(c2ccc(C#N)cc2)[C@@H]1c1ccccc1 (racemic) [69F]
6.00 to 7.00

Give recorded pIC50. COc1cncc2c1[C@]1(O)[C@H](O)[C@H](C(=O)N(C)CC(F)(F)F)[C@@H](c3ccccc3)[C@]1(c1ccc(Br)cc1)O2 (racemic) [88F]
> 7.00

Give recorded pIC50. N#Cc1ccc([C@@]23Oc4cc(Cl)cnc4[C@]2(O)[C@@H](O)[C@H](CN2CCCC2)[C@H]3c2ccccc2)cc1 (racemic) [41Fc]
< 6.00

Give recorded pIC50. CN(C)C(=O)[C@H]1[C@@H](O)[C@@]2(O)c3c(Cl)cncc3O[C@@]2(c2ccc(C#N)cc2)[C@@H]1c1ccccc1 (single isomer, unassigned) [98F]
6.00 to 7.00

Give recorded pIC50. O[C@]12c3ncc(Cl)cc3O[C@@]1(c1ccc(Br)cc1)[C@H](c1ccccc1)[C@H]1CO[C@H]12 (racemic) [60F]
< 6.00

Give recorded pIC50. CN(C)C[C@H]1[C@@H](C#N)[C@@]2(O)c3ncc(Cl)cc3O[C@@]2(c2ccc(Br)cc2)[C@@H]1c1ccccc1 (racemic) [227F]
< 6.00

Give recorded pIC50. COc1cncc2c1[C@]1(O)[C@@H](CN3CCN(C)CC3)[C@H](CO)[C@@H](c3ccccc3)[C@]1(c1ccc(C#N)cc1)O2 (racemic) [184F]
> 7.00

Give recorded pIC50. N#Cc1ccc([C@@]23Oc4cc(Cl)cnc4[C@]2(O)[C@H](O)[C@H](CN2CCCC2)[C@H]3c2ccccc2)cc1 (racemic) [41Fb]
6.00 to 7.00

Give recorded pIC50. COc1cncc2c1[C@]1(O)[C@H](O)[C@H](C(=O)NCC(F)F)[C@@H](c3ccccc3)[C@]1(c1ccc(Br)cc1)O2 (racemic) [116F]
> 7.00

Give recorded pIC50. COc1cncc2c1[C@]1(O)[C@H](O)[C@H](S(=O)(=O)c3ccccc3)[C@@H](c3ccccc3)[C@]1(c1ccc(C#N)cc1)O2 (racemic) [118F]
6.00 to 7.00

Give recorded pIC50. COc1nc(C#N)cc2c1[C@]1(O)[C@H](O)[C@H](CN(C)C)[C@@H](c3ccccc3)[C@]1(c1ccc(C#N)cc1)O2 (single isomer, unassigned) [139F]
> 7.00

Give recorded pIC50. COc1cncc2c1[C@]1(O)[C@@H]3OC(=O)C[C@@H]3[C@@H](c3ccccc3)[C@]1(c1ccc(Br)cc1)O2 (racemic) [275F]
> 7.00

Give recorded pIC50. O=C1O[C@@H]2[C@H]1[C@@H](c1ccccc1)[C@]1(c3ccc(Br)cc3)Oc3cc(Cl)cnc3[C@]21O (racemic) [169F]
< 6.00

Give recorded pIC50. COc1cncc2c1[C@]1(O)[C@H](O)[C@H](CNCc3ccnn3C)[C@@H](c3ccccc3)[C@]1(c1ccc(C#N)cc1)O2 (racemic) [242F]
6.00 to 7.00

Give recorded pIC50. COc1cncc2c1[C@]1(O)[C@@H](CO)C[C@@H](c3ccccc3)[C@]1(c1ccc(CN)cc1)O2 (racemic) [234F]
< 6.00

Give recorded pIC50. N#Cc1ccc([C@@]23Oc4cc(Cl)cnc4[C@]2(O)[C@H](O)[C@H](CO)[C@H]3c2ccccc2)cc1 (racemic) [56F]
< 6.00

Give recorded pIC50. COc1nc(Cl)cc2c1[C@]1(O)[C@H](O)[C@H](CN3CC(C(F)F)C3)[C@@H](c3ccccc3)[C@]1(c1ccc(C#N)cc1)O2 (racemic) [217F]
> 7.00

Give recorded pIC50. CNC(=O)[C@H]1[C@@H](O)[C@@]2(O)c3ncc(Cl)cc3O[C@@]2(c2ccc(C#N)cc2)[C@@H]1c1ccccc1 (single isomer, unassigned) [20F]
> 7.00

Give recorded pIC50. COc1cncc2c1[C@]1(O)[C@H](O)[C@H](C(=O)N3CCN(C)CC3)[C@@H](c3ccccc3)[C@]1(c1ccc(C(F)(F)F)cc1)O2 (racemic) [283F]
6.00 to 7.00

Give recorded pIC50. COc1cncc2c1[C@]1(O)[C@H](O)[C@H](CNC3CC3)[C@@H](c3ccccc3)[C@]1(c1ccc(C#N)cc1)O2 (racemic) [244F]
> 7.00

Give recorded pIC50. O[C@H]1[C@H](Sc2ccccn2)[C@@H](c2ccccc2)[C@]2(c3ccc(Br)cc3)Oc3cc(Cl)cnc3[C@]12O (racemic) [160Fb]
< 6.00

Give recorded pIC50. COc1cncc2c1[C@]1(O)[C@H](O)C(CN3CCN(C)CC3)[C@@H](c3ccccc3)[C@]1(c1ccc(C(F)(F)F)cc1)O2 (single isomer, unassigned) [284F]
6.00 to 7.00

Measured values drawn from patent US10577378B2 for this set.
